src = patent US11141452

Target: T1, human NK1 receptor (human, UniProt P25103)
T1 chain: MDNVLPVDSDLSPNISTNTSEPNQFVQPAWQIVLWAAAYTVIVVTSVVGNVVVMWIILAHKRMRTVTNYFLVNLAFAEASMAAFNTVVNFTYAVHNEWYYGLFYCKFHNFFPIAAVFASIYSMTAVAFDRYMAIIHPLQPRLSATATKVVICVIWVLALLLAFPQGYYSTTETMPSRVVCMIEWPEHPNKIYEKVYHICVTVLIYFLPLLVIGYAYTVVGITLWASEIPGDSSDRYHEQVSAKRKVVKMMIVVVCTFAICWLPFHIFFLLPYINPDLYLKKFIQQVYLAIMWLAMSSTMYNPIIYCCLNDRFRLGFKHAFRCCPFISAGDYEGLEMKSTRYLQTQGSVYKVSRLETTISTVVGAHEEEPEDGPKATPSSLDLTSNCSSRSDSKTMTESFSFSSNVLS
Assay: competition
Non-standard residues stand in square brackets, D forms with d. No end group written: not given here. *: point of attachment. NMeF = CN[C@@H](Cc1ccccc1)C(=O)O; hSer = N[C@@H](CCO)C(=O)O; Dap = NC[C@H](N)C(=O)O; NHBn = c1ccc(CN*)cc1
Assignment: determine reported Ki for the given binders.
Number first, unit second: that is the form wanted.

Lab book: Ki of Y[dA]G[NMeF][Dap]PLW-NHBn [AKG171] noted as 2.98 nM

Lab book: Ki of Y[dA]GF[dS]PLW-NHBn [AKG101] noted as 2.77 nM

Lab book: Ki of Y[dA]GF[hSer]PLW-NHBn [AKG039] noted as 1.32 nM
